Test system: TO-3-N3 (biotin conjugate)
Assay: pull-down binding Z-score (relative to library population); higher = stronger binding
Conditions: RNA library: Library-2
Measured pull-down binding Z-score accompanies every entry in the list below.
Readout Kind: pull-down binding Z-score

residue_codes="GAGUACCUUCCAACACGAGCUCUC [hsa-mir-3664]" number=-0.183
residue_codes="AUAGUUGUGGGGUAGUGAUUUUACCCUGUUCAGGAGAUAACUAU [hsa-let-7f-1]" number=0.676
residue_codes=UGGGUUAUCUUCAACCUA number=-0.534
residue_codes="GGAGGGCCUUCUACGGAAGGAGUGCC [IAV_invivo_M1_M2_7_Motif_16+IAV_invivo_M1_M2_7_Motif_16]" number=0.296
residue_codes="CAGACUGUCUUCCCAAAUAGCCUG [hsa-mir-4772]" number=0.00537
residue_codes="CAUCAUUUGCACUACUGAUACUUGGGGUCAGAUAAUUGUUUGUGGUG [hsa-mir-4447]" number=-0.801
residue_codes="CUGUGGUGGCUGCUUAUGCACCACGG [hsa-mir-105-2]" number=0.62
residue_codes="UCCUAAAGUGAAGUAUUUAUACUUUAUUAAAGGA [SHAPE_invitro_SARS-CoV-2_Motif_235]" number=-1.14
residue_codes="CUGCUUUUAAAGGUAAUGGCAA [hsa-mir-548ag-1]" number=0.107
residue_codes="GGUUCUUCCCGAAGC [hsa-mir-4710]" number=-0.0117

---

Measured pull-down binding Z-score accompanies every entry in the list below.
Test system: TO-3-N3-2 (biotin conjugate)
Experiment: pull-down binding Z-score (relative to library population); higher = stronger binding
Details: RNA library: Library-2
Readout Kind: pull-down binding Z-score

residue_codes="AUUACUGCAAAAUGGUAUGAAUGGACGUACCAUAUUGGGUAGU [DMSMaPseq_invitro_SARS-CoV-2_Motif_194]" readout_kind="pull-down binding Z-score" number=0.144
residue_codes="GACAUCCCUCAUCUGUUUCUCACUGGUGUC [hsa-mir-6830]" readout_kind="pull-down binding Z-score" number=0.244
residue_codes="GGUCAGGUGGUGCCCUCCUUCCAUGGGUAGAGCCAGAGAUGGUGGGUUCUGGCU [hsa-mir-6131]" readout_kind="pull-down binding Z-score" number=0.142
residue_codes="CAUUACUAAACUCAGUAAUG [hsa-mir-451b]" readout_kind="pull-down binding Z-score" number=-0.862
residue_codes="GACAUCUGGGCCAACUCUGAUCUC [hsa-mir-6515]" readout_kind="pull-down binding Z-score" number=-0.126
residue_codes="GGCGGGCGGCGGUGCCCGUC [hsa-mir-4449]" readout_kind="pull-down binding Z-score" number=0.0801
residue_codes="GCUCACCGUGCCCAGUGAGC [IAV_invivo_M1_M2_7_Motif_5+IAV_invivo_M1_M2_7_Motif_5]" readout_kind="pull-down binding Z-score" number=-0.154
residue_codes="GGGUCAGGUCUGCAGCCUUGUAUCUGCUGAUCC [hsa-mir-6881]" readout_kind="pull-down binding Z-score" number=-0.227
residue_codes="AUAUAGAUAUCAGCUACCUAUAU [hsa-mir-3144]" readout_kind="pull-down binding Z-score" number=-0.329
residue_codes="CCUUGCGAAAGGAGAGAAGGCUAAUGUGCUAAUUGGGCAAGG [IAV_invivo_PB2_1_Motif_34+IAV_invivo_PB2_1_Motif_34]" readout_kind="pull-down binding Z-score" number=0.584
residue_codes="ACCAUUUAAUGAUGGU [DMSMaPseq_invitro_SARS-CoV-2_Motif_383]" readout_kind="pull-down binding Z-score" number=-0.365
residue_codes="AGUGAGGCGUCGGCUGUGUUUCU [hsa-mir-2110]" readout_kind="pull-down binding Z-score" number=0.174
residue_codes="GUCUGUUUUCUUCAUGGUUUUCUGAC [hsa-mir-6759]" readout_kind="pull-down binding Z-score" number=-0.481
residue_codes=UAAAGCCACGUAUAAACCAAAUACCUGGUGUAUACGUUGUCUUUG readout_kind="pull-down binding Z-score" number=-0.279
residue_codes="CCCAAUCGUGGCGUGUCGGCCUGCUUCGGCAGGCACUGGCGCCG [Pepper530]" readout_kind="pull-down binding Z-score" number=0.0777
residue_codes=UAGUGCUAUGCAGACAAUGCUUUUCACUA readout_kind="pull-down binding Z-score" number=-0.341
residue_codes=AACAUUAACCUCCACACGCAAGUUGUGGACAUGUCAAUGACAUAUGGACAACAGUUUGGUCCAACUUAUUUGGAUGGAGCUGAUGUU readout_kind="pull-down binding Z-score" number=-0.423
residue_codes=AAGGCUGAUGAAACUCAAGCCUU readout_kind="pull-down binding Z-score" number=-0.269
residue_codes="UAGGGCUGGAUGGUAGGGCCCA [hsa-mir-6890]" readout_kind="pull-down binding Z-score" number=0.343
residue_codes="GAAGAGGGAGCAAUUGUUGGCGAAAUUUCACCAUUGCCUUCUCUUC [IAV_invivo_NS1_NEP_8_Motif_10+IAV_invivo_NS1_NEP_8_Motif_10]" readout_kind="pull-down binding Z-score" number=0.262
residue_codes="GGCAUCCCCAUUGCU [hsa-mir-4304]" readout_kind="pull-down binding Z-score" number=-0.113
residue_codes=GUUUGUGUAUCUACUAGUGGUAGAUGGGUACUUAAC readout_kind="pull-down binding Z-score" number=-0.279
residue_codes="CACUUUCUGCUCUCUGGUGAAAGUG [hsa-mir-371a]" readout_kind="pull-down binding Z-score" number=-0.0736
residue_codes="UUACCCAACGUCUCUGAGUCUCGGUUUUGAGAGGGUGAGUAA [hsa-mir-7973-1]" readout_kind="pull-down binding Z-score" number=-0.0539
residue_codes="CUCCGGGUUGGGG [hsa-mir-1469]" readout_kind="pull-down binding Z-score" number=-0.476
residue_codes="GGGGCCGGGGCCGGGGCCGGGGCCGGGGCCGGGGCC [G4_r(GGGGCC)8]" readout_kind="pull-down binding Z-score" number=4.66
residue_codes="UGUUCAGUGGGAUUUGGAGA [hsa-mir-8061]" readout_kind="pull-down binding Z-score" number=0.152
residue_codes="CUGUUCAGGAGGCUCUCAAUGUGUACA [hsa-mir-199a-1]" readout_kind="pull-down binding Z-score" number=0.404
residue_codes="CACAUCAGUAGUCUUACUCUCAGUUUUGCAACAACUCAGAGUAGAAUCAUCAUCUAAAUUGUG [DMSMaPseq_invitro_SARS-CoV-2_Motif_209]" readout_kind="pull-down binding Z-score" number=-0.352
residue_codes="GAGGUCUUCCCAUGCUAAGAAGUCCUC [hsa-mir-2116]" readout_kind="pull-down binding Z-score" number=0.115
residue_codes="UUGGGAUCCACCUUUCUCUCGA [hsa-mir-196b]" readout_kind="pull-down binding Z-score" number=0.21
residue_codes="GCAGAGAAGACAGUGAGCUUGCCAGUUCUGGUUUCCAACACUUCCUUUCCUGCG [hsa-mir-3911]" readout_kind="pull-down binding Z-score" number=0.236
residue_codes="GAACUUUUACGGUGAACCAGGAGGUUC [hsa-mir-629]" readout_kind="pull-down binding Z-score" number=-0.139
residue_codes="CUUUCUGUUGUCUGAAAGAAAGGAAAG [hsa-mir-519a-1_519a-2]" readout_kind="pull-down binding Z-score" number=-0.315
residue_codes="GUCAGGAGUGGCUUUCCUGAC [hsa-mir-4462]" readout_kind="pull-down binding Z-score" number=-0.271
residue_codes="ACAGUGGACUUGGUGACGCUGU [hsa-mir-675]" readout_kind="pull-down binding Z-score" number=-0.252
residue_codes=AAACGAACUAAAUAUUAUAUUAGUUUUUCUGUUU readout_kind="pull-down binding Z-score" number=0.491
residue_codes="CCUCUCGGGAACUACAAGUCCCAGGGGG [hsa-mir-2861]" readout_kind="pull-down binding Z-score" number=-0.409
residue_codes="UUUUCCUGAGAAUAAGAGAAGGAAGG [hsa-mir-4455]" readout_kind="pull-down binding Z-score" number=-0.0611
residue_codes="CAUUGUAAUAGUUCAUAUGGGCACUG [hsa-mir-3660]" readout_kind="pull-down binding Z-score" number=-0.109
residue_codes=ACGUGAGUCUUGUAAAACCUUCUUUUUACGUUUACUCUCGU readout_kind="pull-down binding Z-score" number=0.0619

---

Measured pull-down binding Z-score accompanies every entry in the list below.
Tested on: TO-3-N3 (biotin conjugate)
Experiment: pull-down binding Z-score (relative to library population); higher = stronger binding
Conditions: RNA library: Library-2
Readout Kind: pull-down binding Z-score

residue_codes="UGCUCAGUGGAGUUAUUUUGAGCA [hsa-mir-4495]" number=-1.01
residue_codes=ACCCUCAAAAAGAGAUGGCAACUAGCACUCUCCAAGGGU number=0.217
residue_codes="GUGGACAGAGGCAAAACUCUAACUUC [hsa-mir-6078]" number=-0.31
residue_codes="GACACCUGGAUUCAGAGAACAUGUC [hsa-mir-1276]" number=-0.322
residue_codes="UUGGUGUGUAUUGCCUUGUCAA [hsa-mir-1179]" number=-0.972
residue_codes="UGGGUCAAGGAGCCCA [hsa-mir-4530]" number=-0.163
residue_codes=CUCUAUGACAAACUUGUUUCAAGCUUUUUGGAAAUGAAGAGUGAAAAGCAAGUUGAACAAAAGAUCGCUGAG number=-0.302
residue_codes="CGUGCACGUACCUGUCACAUGUGUACG [hsa-mir-3939]" number=-0.72
residue_codes="GAACUCUACUAAUGUCACUAUUGCAACCUACUGUACUGGUUCUAUACCUUGUAGUGUUUGUCUUAGUGGUUUAGAUUC [DMSMaPseq_invitro_SARS-CoV-2_Motif_135]" number=0.03
residue_codes="AUGAGCUAAAAAUCCCCAAGCUCU [hsa-mir-4769]" number=-0.414
residue_codes=AAGGAUGCUACUCCUU number=-0.922

FYI, the data here is from the supplement of paper PMC11865577.
